test: qHTS assay for identifying genotoxic compounds that show differential cytotoxicity against isogenic chicken DT40 cell lines with known DNA damage response pathways - Rad54/Ku70 mutant cell line (AID 743015); conditions: DT40 Rad54/Ku70 mutant viability, CellTiter-Glo, 40 h; series mostly up to 66.8 µM; note: nearly all actives have a fitted effect of over 60% in size
Inconclusive results are not listed. Active and inactive are the calls of the source. Calls come from the whole dose curve; as a rule, active = well fitted cell-killing curve with a large enough effect in the repeat runs; inconclusive = weak or mixed curves; inactive = no such curve, though single readings can be large or run the other way.
Outcomes: 1 (yes) (active), 0 (no) (inactive)

compound | cat
CC(=O)Nc1ccc(OCC(O)CNC(C)C)cc1 (centres undefined) | 0 (no)
C[N+]1(CC2COC(c3ccccc3)(c3ccccc3)O2)CCCCC1 (centres undefined) | 1 (yes)
NC(=O)Cc1cccc2ccccc12 | 0 (no)
CO/N=C(\C(=O)N[C@@H]1C(=O)N2C(C(=O)O)=C(CSc3nc(=O)c(O)nn3C)CS[C@H]12)c1csc(N)n1 | 0 (no)

Values from PubChem BioAssay (Tox21)
